Target System: T1, Glucagon receptor (rat), P30082
T1 chain: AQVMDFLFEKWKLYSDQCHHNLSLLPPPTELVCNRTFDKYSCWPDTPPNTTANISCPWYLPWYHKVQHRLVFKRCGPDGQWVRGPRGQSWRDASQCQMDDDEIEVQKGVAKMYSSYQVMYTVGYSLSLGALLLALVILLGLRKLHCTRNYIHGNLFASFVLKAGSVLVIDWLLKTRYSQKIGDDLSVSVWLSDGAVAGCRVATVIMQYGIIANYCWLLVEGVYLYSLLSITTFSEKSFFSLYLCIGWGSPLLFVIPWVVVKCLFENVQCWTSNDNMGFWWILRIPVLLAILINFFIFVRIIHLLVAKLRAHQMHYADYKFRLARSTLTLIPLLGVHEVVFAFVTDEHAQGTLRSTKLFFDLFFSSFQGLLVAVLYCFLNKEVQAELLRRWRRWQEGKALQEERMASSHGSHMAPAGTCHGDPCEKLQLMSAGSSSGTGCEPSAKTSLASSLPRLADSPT
Protocol Summary: competition
Run Parameters: modification not given
Observation Type: IC50 (nM)

Some solved cases for reference:
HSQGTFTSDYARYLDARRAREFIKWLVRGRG [G83]
28.6
HSQGTFTSDYARYLDARRAREFIKWLVRGRC [G185]
48
HSQGTFTSDYARYLDARRAKEFIAWLVKGR [G55]
139
HSQGTFTSDYAKYLDAKKAKEFIAWLVKGRG [G58]
164
HSQGTFTSDYAKYLDARRAKEFIAWLVKCRG [G75]
54
HSQGTFTSDYARYLDARRAKEFIKWLVRGRG [G183]
663
HSQGTFTSDYAKYLDARRAKEFIAWLVKGRK [G88]
350
HSQGTFTSDYARYLDARRAREFIKWLVRGRGK [G182]
220
HSQGTFTSDYAKYLDAAKAKEFIAWLVKGRG [G60]
682

[1] HSQGTFTSDYAKYLDAARAKEFIAWLVKGR [G57]
[2] HSQGTFTSDYAKYLDARRAKEFIAWLVCGRG [G74]
[3] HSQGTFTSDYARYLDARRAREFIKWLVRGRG [G90]
[4] HSQGTFTSDYAKYLDARRAKEFIAWLVKGCG [G76]
Query: Put the entries in order of IC50, starting with the largest number. Answer format: the labels, ordered as requested.
Result: 3, 1, 4, 2
